System: P. aeruginosa 43
TEST METHOD NOTES: In vitro antibacterial activity test (broth microdilution)
Format: cell-based
CONDITIONS: Pseudomonas aeruginosa, 43
PROPERTY NAME: MIC90

Look over these answered cases.
COMPOUND | ENDPOINT RESULT
CC(C)(O/N=C(\C(=O)N[C@@H]1C(=O)N2C(C(=O)[O-])=C(/C=C/C[n+]3cnc(N)c(NC(=O)CCCN)c3N)CSC12)c1nc(N)sc1Cl)C(=O)O (stereo partly drawn) | > 128 µg/mL
CC(C)(O/N=C(\C(=O)N[C@@H]1C(=O)N2C(C(=O)[O-])=C(C[n+]3cnc(N)c(NCCN)c3)CSC12)c1csc(N)n1)C(=O)O (stereo partly drawn) | > 128 µg/mL

Lab request: please report MIC90 under test system P. aeruginosa 43 for CC(C)(O/N=C(\C(=O)N[C@@H]1C(=O)N2C(C(=O)[O-])=C(/C=C/C[n+]3cnc(N)c(NC(=O)CCN)c3N)CSC12)c1csc(N)n1)C(=O)O (stereo partly drawn) > 128 µg/mL

----------
Listed compounds paired with reported MIC90
System: P. aeruginosa 43
TEST METHOD NOTES: In vitro antibacterial activity test (broth microdilution)
Assay type: cell-based
CONDITIONS: Pseudomonas aeruginosa; P. aeruginosa 43; read-out: MIC90
I only need the number, in µg/mL, no unit after it.

Look over these answered cases.
COMPOUND | MIC90 / µg/mL
CC(C)(O/N=C(\C(=O)N[C@@H]1C(=O)N2C(C(=O)[O-])=C(C[n+]3cnc(N)c(NC(=O)CCNC(=O)c4ccc(O)c(O)c4)c3)CSC12)c1csc(N)n1)C(=O)O (stereo partly shown) | 4
CC(C)(O/N=C(\C(=O)N[C@@H]1C(=O)N2C(C(=O)[O-])=C(/C=C/C[n+]3cnc(N)c(NCCNC(=O)c4cc(=O)c(O)cn4O)c3)CSC12)c1nsc(N)n1)C(=O)O (stereo partly shown) | 0.25
CC(C)(O/N=C(\C(=O)N[C@@H]1C(=O)N2C(C(=O)[O-])=C(/C=C/C[n+]3cnc(N)c(NCCCCNC(=O)c4cc(=O)c(O)cn4O)c3)CSC12)c1csc(N)n1)C(=O)O (stereo partly shown) | 1
CC(C)(O/N=C(\C(=O)N[C@@H]1C(=O)N2C(C(=O)[O-])=C(C[n+]3cnc(N)c(NCCNC(=O)c4cc(=O)c(O)cn4O)c3)CSC12)c1csc(N)n1)C(=O)O (stereo partly shown) | 0.25

Please report the recorded MIC90 for CNc1nc[n+](CC2=C(C(=O)[O-])N3C(=O)[C@@H](NC(=O)/C(=N\OC(C)(C)C(=O)O)c4csc(N)n4)C3SC2)cc1N (stereo partly shown) . 4

Please report the recorded MIC90 for CC(C)(O/N=C(\C(=O)N[C@@H]1C(=O)N2C(C(=O)[O-])=C(C[n+]3cnc(N)c(NCCCNC(=O)c4ccc(O)c(O)c4)c3)CSC12)c1csc(N)n1)C(=O)O (stereo partly shown) . 1

Please report the recorded MIC90 for CC(C)(O/N=C(\C(=O)N[C@@H]1C(=O)N2C(C(=O)[O-])=C(/C=C/C[n+]3cnc(N)c(NC(=O)CCNC(=O)c4cc(=O)c(O)cn4O)c3)CSC12)c1csc(N)n1)C(=O)O (stereo partly shown) . 1

Please report the recorded MIC90 for CC(C)(O/N=C(\C(=O)N[C@@H]1C(=O)N2C(C(=O)[O-])=C(C[n+]3cnc(N)c(NC(=O)CNC(=O)c4ccc(O)c(O)c4)c3)CSC12)c1csc(N)n1)C(=O)O (stereo partly shown) . 0.5

Please report the recorded MIC90 for CC(C)(O/N=C(\C(=O)N[C@@H]1C(=O)N2C(C(=O)[O-])=C(C[n+]3ccccc3)CS[C@H]12)c1csc(N)n1)C(=O)O [Ceftazidime, reference compound] . 16

Please report the recorded MIC90 for C[C@H](O/N=C(\C(=O)N[C@@H]1C(=O)N2C(C(=O)[O-])=C(C[n+]3cnc(N)c(NCCNC(=O)c4ccc(O)c(O)c4)c3)CSC12)c1csc(N)n1)C(=O)O (stereo partly shown) . 0.5

Please report the recorded MIC90 for CC(C)(O/N=C(\C(=O)N[C@@H]1C(=O)N2C(C(=O)[O-])=C(C[n+]3cnc(N)c(NCCNC(=O)c4cc(=O)c(O)cn4O)c3)CSC12)c1nsc(N)n1)C(=O)O (stereo partly shown) . 2

Please report the recorded MIC90 for C[C@H](O/N=C(\C(=O)N[C@@H]1C(=O)N2C(C(=O)[O-])=C(/C=C/C[n+]3cnc(N)c(NCCNC(=O)c4cc(=O)c(O)cn4O)c3)CSC12)c1nc(N)sc1Cl)C(=O)O (stereo partly shown) . 0.25
